- assayDetails: in vitro
- measurementSetup: human, 50% human plasma (pooled, sodium heparin) in PBS, pH 7.4

>  <smiles>
CN[C@H](CC(C)C)C(=O)N[C@H]1C(=O)N[C@@H](CC(N)=O)C(=O)N[C@H]2C(=O)N[C@H]3C(=O)N[C@H](C(=O)N[C@H](C(=O)O)c4cc(O)cc(O)c4-c4cc3ccc4O)[C@H](O)c3ccc(c(Cl)c3)Oc3cc2cc(c3O[C@@H]2O[C@H](CO)[C@@H](O)[C@H](O)[C@H]2O[C@H]2C[C@](C)(N)[C@H](O)[C@H](C)O2)Oc2ccc(cc2Cl)[C@H]1O

>  <remaining at 6 h, 20 µM>
91%

$$$$
